Each recorded value in this set is attributed to PubChem BioAssay AID372.

Tested on: Gag-Pol polyprotein (Human immunodeficiency virus type 1 group M subtype B (isolate HXB2)) (UniProt P04585)
Procedure text: RNase H inhibition, HIV 1 Gag Pol polyprotein, FRET biochemical assay, screening (AID 372)
Condition notes: HIV-1 RT RNase H, FRET RNA/DNA substrate fluorescence; at 10 µM; stronger effect = higher value
In all, about 100,000 compounds went through this assay and about 770 (0.77%) were called active. The list comes from a sample in which actives are over-represented; it also holds close analogues and randomly drawn compounds.
# inhibition >= 20% gives fulfilled, anything below gives not fulfilled

{"Compound": "CC(Oc1ccc(Br)cc1)C(=O)N/N=C/c1ccc(N(C)C)cc1 (configuration not stated)", "Group": "not fulfilled"}
{"Compound": "O=C1/C(=C\\c2ccc(O)cc2)SC(=S)N1c1ccc(Cl)cc1", "Group": "fulfilled"}
{"Compound": "O=C(O)CCC(=O)N1N=C(c2c(-c3ccccc3)c3cc(Cl)ccc3[nH]c2=O)CC1c1ccc([N+](=O)[O-])cc1 (configuration not stated)", "Group": "not fulfilled"}
{"Compound": "O=C(NCC1CCCO1)/C(=C/c1cccc(Oc2ccccc2)c1)NC(=O)c1ccccc1 (configuration not stated)", "Group": "not fulfilled"}
{"Compound": "O=C(c1c(F)cccc1F)N1CCN(c2cc(N3CCCC3)c(F)cc2[N+](=O)[O-])CC1", "Group": "not fulfilled"}
{"Compound": "OCCNc1nc(-c2ccccc2Cl)nc2ccccc12", "Group": "not fulfilled"}
{"Compound": "O=C1/C(=C\\c2ccc(O)c(O)c2)SC(=S)N1c1cccc(C(F)(F)F)c1", "Group": "fulfilled"}
{"Compound": "CCOc1ccc(CN2CCN(C(=O)c3cccs3)CC2)cc1", "Group": "not fulfilled"}
{"Compound": "COc1ccc(NC(=O)CN(c2c(C)n(C)n(-c3ccccc3)c2=O)S(=O)(=O)c2ccccc2)cc1", "Group": "not fulfilled"}
{"Compound": "O=C1NC(=O)N(c2cccc3ccccc23)C(=O)/C1=C/c1ccc(O)c(O)c1", "Group": "fulfilled"}
{"Compound": "Brc1ccccc1OCCCCCn1ccnc1", "Group": "not fulfilled"}
{"Compound": "CC(=O)c1cccc(NC(=O)CC2S/C(=N\\N=C(/C)C(C)(C)C)NC2=O)c1 (configuration not stated)", "Group": "not fulfilled"}
{"Compound": "CC12C=CC(O1)C1C(=O)N(c3ccc([N+](=O)[O-])cc3)C(=O)C12 (configuration not stated)", "Group": "not fulfilled"}
{"Compound": "COc1ccc2ccccc2c1/C=C1\\SC(=Nc2cccc(Cl)c2C)NC1=O", "Group": "fulfilled"}
{"Compound": "COc1ccc(N=C(C)c2cc(Cl)ccc2O)cc1", "Group": "fulfilled"}
{"Compound": "CCCOC(=O)c1c(NC(=O)Cc2ccc(OC)cc2)sc2c1CCCC2", "Group": "fulfilled"}
{"Compound": "CC(O)c1cccc(NC(=O)c2nn3c(c2Cl)NC(c2cccs2)CC3C(F)(F)F)c1 (configuration not stated)", "Group": "not fulfilled"}
{"Compound": "CN(C)c1ccc(/C=C2\\C(=O)N(c3nc(-c4ccc(Cl)cc4)cs3)N=C2c2ccccc2)cc1", "Group": "fulfilled"}
{"Compound": "COc1ccc(C(=O)NC(CC(=O)O)c2ccccc2)cc1 (configuration not stated)", "Group": "not fulfilled"}
{"Compound": "COc1ccc(O)c(CN2CCCCC2)c1", "Group": "not fulfilled"}
{"Compound": "O=C1/C(=C\\c2ccc(O)c(O)c2)SC(=S)N1c1cccc2ccccc12", "Group": "fulfilled"}
{"Compound": "Cc1cccc2c(Nc3ccccc3)c3ccccc3nc12", "Group": "not fulfilled"}
